Test system: A431 (epidermoid carcinoma)
ASSAY_DETAILS: Antiproliferative activity (CCK-8 cell viability), A431
Assay type: cell-based
CONDITION_SUMMARY: Homo sapiens, A-431, Compound concentration: 10 μM, 72 h, read-out: Antiproliferative activity in cancerous cells, A431 (inhibition of cell growth)
PARAMETER: inhibition at 10 µM

q: # get_value(readout= inhibition at 10 µM, system= A431 (epidermoid carcinoma)) for CC1=C(Cc2noc(=O)[nH]2)c2cc(F)ccc2/C1=C\c1cccc(Oc2ccccc2)c1
a: < 30%

q: # get_value(readout= inhibition at 10 µM, system= A431 (epidermoid carcinoma)) for CC1=C(CC(=O)O)c2cc(F)ccc2/C1=C/c1cccc(COc2ccc(F)cc2F)c1
a: 30 to 50%

q: # get_value(readout= inhibition at 10 µM, system= A431 (epidermoid carcinoma)) for CC1=C(CC(=O)O)c2cc(F)ccc2/C1=C\c1cccc(Oc2ccc(O)c(Cl)c2)c1
a: ≥ 50%

q: # get_value(readout= inhibition at 10 µM, system= A431 (epidermoid carcinoma)) for CC1=C(CC(=O)O)c2cc(I)ccc2/C1=C/c1ccc(COCc2ccc(F)cc2)cc1
a: ≥ 50%

q: # get_value(readout= inhibition at 10 µM, system= A431 (epidermoid carcinoma)) for CC1=C(CC(=O)O)c2cc(F)ccc2/C1=C\c1ccc(COCc2ccc(F)c(F)c2)cc1
a: ≥ 50%

q: # get_value(readout= inhibition at 10 µM, system= A431 (epidermoid carcinoma)) for CC1=C(CC(=O)O)c2cc(F)ccc2/C1=C/c1ccc(Oc2ccc(Cl)cc2)cc1
a: ≥ 50%

q: # get_value(readout= inhibition at 10 µM, system= A431 (epidermoid carcinoma)) for CC1=C(CC(=O)O)c2cc(F)ccc2/C1=C\c1ccc(C(=O)c2cc3ccccc3o2)cc1
a: ≥ 50%

q: # get_value(readout= inhibition at 10 µM, system= A431 (epidermoid carcinoma)) for CC1=C(CC(=O)O)c2cc(F)ccc2/C1=C\c1ccc(CSc2nc3ccccc3[nH]2)cc1
a: ≥ 50%

q: # get_value(readout= inhibition at 10 µM, system= A431 (epidermoid carcinoma)) for CC1=C(CCC(=O)O)c2ccccc2/C1=C/c1cccc(Oc2ccccc2)c1
a: < 30%

q: # get_value(readout= inhibition at 10 µM, system= A431 (epidermoid carcinoma)) for CC1=C(CC(=O)O)c2cc(F)ccc2/C1=C\c1cccc(C[S+]([O-])c2ccc(F)cc2)c1 (centres unmarked)
a: < 30%

q: # get_value(readout= inhibition at 10 µM, system= A431 (epidermoid carcinoma)) for COc1ccc2c(c1)C(CC(=O)O)=C(C)/C2=C/c1ccc(Oc2ccc(Cl)cc2)cc1C
a: ≥ 50%

q: # get_value(readout= inhibition at 10 µM, system= A431 (epidermoid carcinoma)) for O=C(O)CC1=C/C(=C/c2cccc(Oc3ccccc3)c2)c2cc(OCC(F)(F)F)ccc21
a: < 30%

q: # get_value(readout= inhibition at 10 µM, system= A431 (epidermoid carcinoma)) for CC1=C(CC(=O)O)c2cc(F)ccc2/C1=C\c1ccc(COCc2ccc(C(F)(F)F)cc2)cc1
a: ≥ 50%

q: # get_value(readout= inhibition at 10 µM, system= A431 (epidermoid carcinoma)) for CC1=C(CC(=O)O)c2cc(Cl)ccc2/C1=C\c1ccc(COCc2ccc(F)cc2)cc1
a: ≥ 50%

q: # get_value(readout= inhibition at 10 µM, system= A431 (epidermoid carcinoma)) for CCc1ccc2c(c1)C(CC(=O)O)=C(C)/C2=C/c1cccc(COc2ccc(F)cc2)c1
a: ≥ 50%

q: # get_value(readout= inhibition at 10 µM, system= A431 (epidermoid carcinoma)) for COc1ccc(Oc2ccc(/C=C3\C(C)=C(CC(=O)O)c4cc(F)ccc43)cn2)cc1 [E1]
a: < 30%

q: # get_value(readout= inhibition at 10 µM, system= A431 (epidermoid carcinoma)) for CC1=C(CC(=O)O)c2cc(F)ccc2/C1=C\c1ccc(Oc2ccc(Cl)cc2F)cc1
a: ≥ 50%

q: # get_value(readout= inhibition at 10 µM, system= A431 (epidermoid carcinoma)) for CC1=C(CC(=O)O)c2cc(Cl)ccc2/C1=C\c1ccc(COCc2ccc(Cl)cc2)cc1
a: ≥ 50%

q: # get_value(readout= inhibition at 10 µM, system= A431 (epidermoid carcinoma)) for CC1=C(CC(=O)O)c2cc(F)ccc2/C1=C\c1cccc(C(=O)Nc2ccc(F)cc2)c1
a: ≥ 50%

q: # get_value(readout= inhibition at 10 µM, system= A431 (epidermoid carcinoma)) for CC1=C(CC(=O)O)c2ccc(F)cc2/C1=C\c1cccc(Oc2ccccc2)c1
a: ≥ 50%

q: # get_value(readout= inhibition at 10 µM, system= A431 (epidermoid carcinoma)) for CC1=C(CC(=O)O)c2cc(F)ccc2/C1=C\c1ccc(Cc2cc3ccccc3o2)cc1
a: 30 to 50%

q: # get_value(readout= inhibition at 10 µM, system= A431 (epidermoid carcinoma)) for CC1=C(CCO)c2cc(F)ccc2/C1=C\c1ccc(Oc2ccc(F)cc2)cc1
a: ≥ 50%

q: # get_value(readout= inhibition at 10 µM, system= A431 (epidermoid carcinoma)) for CC1=C(CC(=O)O)c2cc(F)ccc2/C1=C\c1ccc(OCCc2ccc(F)cc2)cc1
a: ≥ 50%

q: # get_value(readout= inhibition at 10 µM, system= A431 (epidermoid carcinoma)) for COc1ccc2c(c1)/C(=C\c1ccc(Oc3ccc(F)cc3)cc1)C(C)=C2CC(=O)O
a: ≥ 50%

q: # get_value(readout= inhibition at 10 µM, system= A431 (epidermoid carcinoma)) for CC1=C(CC(=O)O)c2cc(F)ccc2/C1=C\c1ccc(CSc2ccc(F)cc2)cc1
a: 30 to 50%

q: # get_value(readout= inhibition at 10 µM, system= A431 (epidermoid carcinoma)) for O=C(O)CC1=C(CC2CCCC2)/C(=C/c2ccc(COc3ccccc3)cc2)c2ccc(F)cc21
a: ≥ 50%

q: # get_value(readout= inhibition at 10 µM, system= A431 (epidermoid carcinoma)) for COc1cc(Oc2ccc(Cl)cc2)ccc1/C=C1/C(C)=C(CC(=O)O)c2cc(F)ccc21
a: ≥ 50%

q: # get_value(readout= inhibition at 10 µM, system= A431 (epidermoid carcinoma)) for CC1=C(CC(=O)O)c2cc(Cl)ccc2/C1=C\c1cccc(Oc2ccc(O)cc2)c1
a: ≥ 50%

q: # get_value(readout= inhibition at 10 µM, system= A431 (epidermoid carcinoma)) for COc1ccc(Oc2cccc(/C=C3/C(C)=C(CC(=O)O)c4cc(Cl)ccc43)c2)cc1
a: ≥ 50%

q: # get_value(readout= inhibition at 10 µM, system= A431 (epidermoid carcinoma)) for CC1=C(CC(=O)O)c2cc(F)ccc2/C1=C\c1ccc(CCCCc2ccc(F)cc2)cc1
a: ≥ 50%

q: # get_value(readout= inhibition at 10 µM, system= A431 (epidermoid carcinoma)) for CC1=C(CC(=O)O)c2cc(Cl)ccc2/C1=C\c1ccc(COc2ccc(C(F)(F)F)cc2)cc1
a: 30 to 50%

q: # get_value(readout= inhibition at 10 µM, system= A431 (epidermoid carcinoma)) for CC1=C(CC(=O)O)c2cc(F)ccc2/C1=C\c1ccc(Oc2ccc(F)c(Br)c2)cc1
a: ≥ 50%

q: # get_value(readout= inhibition at 10 µM, system= A431 (epidermoid carcinoma)) for CC1=C(CC(=O)O)c2c(F)cccc2/C1=C\c1ccc(COc2ccccc2)cc1
a: ≥ 50%

q: # get_value(readout= inhibition at 10 µM, system= A431 (epidermoid carcinoma)) for COc1ccc2c(c1)/C(=C\c1ccc(Oc3ccc(F)cc3)cc1)C(Cc1ccccc1)=C2CC(=O)O
a: ≥ 50%

q: # get_value(readout= inhibition at 10 µM, system= A431 (epidermoid carcinoma)) for CCc1ccc2c(c1)C(CC(=O)O)=C(C)/C2=C/c1cccc(Oc2ccccc2)c1
a: ≥ 50%

Just for reference, patent US20260184663A1 is where these values come from.
